# study system: cPLA2
# experimental details: biochemical
# Sequence (P00630 34-167 limits assumed): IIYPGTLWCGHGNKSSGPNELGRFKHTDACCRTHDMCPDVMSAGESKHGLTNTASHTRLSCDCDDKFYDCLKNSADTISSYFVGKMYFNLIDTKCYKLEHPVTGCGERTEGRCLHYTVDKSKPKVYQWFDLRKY
// returns class 0 unless IC50 is strictly below 2 µM, in which case class 1

compound	study system	label
COc1cc(C=Nn2c(Nc3ccc(S(=O)(=O)Nc4nccc(C)n4)cc3)nc3ccccc3c2=O)ccc1O	cPLA2	class 0
O=c1cc(-c2ccccc2)oc2cc(O)c(O)c(O)c12 [Baicalein, reference compound]	cPLA2	class 0
CCOC(=O)c1nn2c(=O)c3ccccc3nc2n1-c1ccc(S(=O)(=O)Nc2nccc(C)n2)cc1	cPLA2	class 0
Cc1ccnc(NS(=O)(=O)c2ccc(N3CC(=O)Nn4c3nc3ccccc3c4=O)cc2)n1	cPLA2	class 1
Cc1ccnc(NS(=O)(=O)c2ccc(Nc3nc4ccccc4c(=O)n3N)cc2)n1	cPLA2	class 1

====

# IC50 annotations
# study system: sPLA2
# experimental details: sPLA2 enzyme inhibition assay (Cayman Chemical kit)
# run parameters: mean ± SD; tested 0–17.5 µM
# Protocol: The sPLA2 screening assay was carried out according to the manufacturer’s protocol (Cayman Chemical). Briefly, 10 μL of sPLA2 was mixed with 10 μL of dimethyl sulfoxide. In a separate experiment, 10 µL of sPLA2 was added to 10 µL standard sPLA2 inhibitor (thioetheramide, 12.5 µM) and 200 µL substrate solution (diheptanoyl thiol). […] Absorbance was recorded at […] using a plate reader and the IC50 was determined for the synthesized compounds (4–6 and 12) as well as the standard drugs.

compound	IC50 (µM)
COc1cc(C=Nn2c(Nc3ccc(S(=O)(=O)Nc4nccc(C)n4)cc3)nc3ccccc3c2=O)ccc1O	2.73
Cc1ccnc(NS(=O)(=O)c2ccc(N3CC(=O)Nn4c3nc3ccccc3c4=O)cc2)n1	1.02
O=c1cc(-c2ccccc2)oc2cc(O)c(O)c(O)c12 [Baicalein, reference compound]	0.89
Cc1ccnc(NS(=O)(=O)c2ccc(Nc3nc4ccccc4c(=O)n3N)cc2)n1	2.84
CCOC(=O)c1nn2c(=O)c3ccccc3nc2n1-c1ccc(S(=O)(=O)Nc2nccc(C)n2)cc1	4.45

====

Recorded IC50 values (SARS-CoV-2 main protease (Severe acute respiratory syndrome coronavirus 2, UniProt P0DTD1)) are given below.

compound	IC50
Cc1ccnc(NS(=O)(=O)c2ccc(N3CC(=O)Nn4c3nc3ccccc3c4=O)cc2)n1 [Compound 6]	1.18 µM
Cc1ccnc(NS(=O)(=O)c2ccc(Nc3nc4ccccc4c(=O)n3N)cc2)n1 [Compound 4]	2.01 µM
COc1cc(C=Nn2c(Nc3ccc(S(=O)(=O)Nc4nccc(C)n4)cc3)nc3ccccc3c2=O)ccc1O [Compound 5]	3.68 µM
CCOC(=O)c1nn2c(=O)c3ccccc3nc2n1-c1ccc(S(=O)(=O)Nc2nccc(C)n2)cc1 [Compound 12]	5.47 µM

====

# System: sPLA2
# Type: cell-based, mouse
# run parameters: LPS 1 μg/mL + higher dose: 4 2.84, 5 3.68, 6 1.18, 12 5.47, baicalein 3.88, ivermectin 149.39 µM
Marks after values point to notes of the source that are not given here.
Readings of sPLA2 level for the listed compounds

compound	study system	sPLA2 level
COc1cc(C=Nn2c(Nc3ccc(S(=O)(=O)Nc4nccc(C)n4)cc3)nc3ccccc3c2=O)ccc1O [Compound 5]	sPLA2	34.17 ± 1.73 ^e pg/mL
Cc1ccnc(NS(=O)(=O)c2ccc(Nc3nc4ccccc4c(=O)n3N)cc2)n1 [Compound 4]	sPLA2	29.10 ± 2.52 ^d pg/mL
O=c1cc(-c2ccccc2)oc2cc(O)c(O)c(O)c12 [Baicalein, reference compound]	sPLA2	24.77 ± 2.73 ^c pg/mL
CCOC(=O)c1nn2c(=O)c3ccccc3nc2n1-c1ccc(S(=O)(=O)Nc2nccc(C)n2)cc1 [Compound 12]	sPLA2	40.61 ± 4.19 ^f pg/mL
Cc1ccnc(NS(=O)(=O)c2ccc(N3CC(=O)Nn4c3nc3ccccc3c4=O)cc2)n1 [Compound 6]	sPLA2	18.29 ± 2.35 ^b pg/mL

====

# System: cPLA2
# Format: cell-based, mouse
# run parameters: LPS 1 μg/mL + higher dose: 4 2.84, 5 3.68, 6 1.18, 12 5.47, baicalein 3.88, ivermectin 149.39 µM
Marks after values point to notes of the source that are not given here.
Each item that follows carries a reported cPLA2 level.
readout label: cPLA2 level

compound	readout label	value observed
CCOC(=O)c1nn2c(=O)c3ccccc3nc2n1-c1ccc(S(=O)(=O)Nc2nccc(C)n2)cc1	cPLA2 level	722.24 ± 30.40 ^e dpm/mL
Cc1ccnc(NS(=O)(=O)c2ccc(N3CC(=O)Nn4c3nc3ccccc3c4=O)cc2)n1	cPLA2 level	536.93 ± 23.50 ^b dpm/mL
COc1cc(C=Nn2c(Nc3ccc(S(=O)(=O)Nc4nccc(C)n4)cc3)nc3ccccc3c2=O)ccc1O	cPLA2 level	719.32 ± 37.15 ^e dpm/mL
Cc1ccnc(NS(=O)(=O)c2ccc(Nc3nc4ccccc4c(=O)n3N)cc2)n1	cPLA2 level	671.05 ± 29.17 ^d dpm/mL
O=c1cc(-c2ccccc2)oc2cc(O)c(O)c(O)c12 [Baicalein, reference compound]	cPLA2 level	616.34 ± 28.34 ^c dpm/mL

====

# Test system: NO
# Assay type: cell-based, mouse
# run parameters: LPS 1 μg/mL + higher dose: 4 2.84, 5 3.68, 6 1.18, 12 5.47, baicalein 3.88, ivermectin 149.39 µM
Marks after values point to notes of the source that are not given here.
readout label: NO level

compound	readout label	value observed
Cc1ccnc(NS(=O)(=O)c2ccc(N3CC(=O)Nn4c3nc3ccccc3c4=O)cc2)n1 [Compound 6]	NO level	19.02 ± 1.5 ^b µmol/L
COc1cc(C=Nn2c(Nc3ccc(S(=O)(=O)Nc4nccc(C)n4)cc3)nc3ccccc3c2=O)ccc1O [Compound 5]	NO level	29.37 ± 2.21 ^f µmol/L
O=c1cc(-c2ccccc2)oc2cc(O)c(O)c(O)c12 [Baicalein, reference compound]	NO level	20.53 ± 1.89 ^c µmol/L
Cc1ccnc(NS(=O)(=O)c2ccc(Nc3nc4ccccc4c(=O)n3N)cc2)n1 [Compound 4]	NO level	25.18 ± 2.98 ^d µmol/L
CCOC(=O)c1nn2c(=O)c3ccccc3nc2n1-c1ccc(S(=O)(=O)Nc2nccc(C)n2)cc1 [Compound 12]	NO level	30.94 ± 3.76 ^f µmol/L

====

# Test system: IL-8
# experimental details: IL-8 level in LPS-treated isolated lung cells (ELISA)
# Assay type: cell-based, mouse
# run parameters: LPS 1 μg/mL + higher dose: 4 2.84, 5 3.68, 6 1.18, 12 5.47, baicalein 3.88, ivermectin 149.39 µM
Marks after values point to notes of the source that are not given here.

molecule	study system	IL-8 level
O=c1cc(-c2ccccc2)oc2cc(O)c(O)c(O)c12 [Baicalein, reference compound]	IL-8	1.42 ± 0.13 ^c ng/mL
COc1cc(C=Nn2c(Nc3ccc(S(=O)(=O)Nc4nccc(C)n4)cc3)nc3ccccc3c2=O)ccc1O [Compound 5]	IL-8	2.40 ±0.09 ^e ng/mL
CCOC(=O)c1nn2c(=O)c3ccccc3nc2n1-c1ccc(S(=O)(=O)Nc2nccc(C)n2)cc1 [Compound 12]	IL-8	3.21 ± 0.21 ^f ng/mL
Cc1ccnc(NS(=O)(=O)c2ccc(Nc3nc4ccccc4c(=O)n3N)cc2)n1 [Compound 4]	IL-8	2.17 ± 0.07 ^d ng/mL
Cc1ccnc(NS(=O)(=O)c2ccc(N3CC(=O)Nn4c3nc3ccccc3c4=O)cc2)n1 [Compound 6]	IL-8	1.17 ± 0.06 ^b ng/mL

====

Overview of reported decrease in IL-8 level across a group of compounds:
# System: IL-8
# experimental details: IL-8 level in LPS-treated isolated lung cells (ELISA)
# Type: cell-based, mouse
# run parameters: compared to LPS-exposed cells; lower dose: 4 1.44, 5 2.08, 6 0.5, 12 2.39, baicalein 0.89, ivermectin 131.01 µM

compound	unit spec	decrease in IL-8 level
COc1cc(C=Nn2c(Nc3ccc(S(=O)(=O)Nc4nccc(C)n4)cc3)nc3ccccc3c2=O)ccc1O	%	52.26
CCOC(=O)c1nn2c(=O)c3ccccc3nc2n1-c1ccc(S(=O)(=O)Nc2nccc(C)n2)cc1	%	33.10
O=c1cc(-c2ccccc2)oc2cc(O)c(O)c(O)c12 [Baicalein, reference compound]	%	64.11
Cc1ccnc(NS(=O)(=O)c2ccc(Nc3nc4ccccc4c(=O)n3N)cc2)n1	%	55.57
Cc1ccnc(NS(=O)(=O)c2ccc(N3CC(=O)Nn4c3nc3ccccc3c4=O)cc2)n1	%	68.82

====

Overview of recorded cPLA2 level for various molecules
# System: cPLA2
# Type: cell-based, mouse
# run parameters: LPS 1 μg/mL + lower dose: 4 1.44, 5 2.08, 6 0.5, 12 2.39, baicalein 0.89, ivermectin 131.01 µM
Marks after values point to notes of the source that are not given here.

molecule	cPLA2 level
Cc1ccnc(NS(=O)(=O)c2ccc(Nc3nc4ccccc4c(=O)n3N)cc2)n1 [Compound 4]	1077.77 ± 68.61 ^i dpm/mL
COc1cc(C=Nn2c(Nc3ccc(S(=O)(=O)Nc4nccc(C)n4)cc3)nc3ccccc3c2=O)ccc1O [Compound 5]	1258.99 ± 35.57 ^k dpm/mL
O=c1cc(-c2ccccc2)oc2cc(O)c(O)c(O)c12 [Baicalein, reference compound]	903.43 ± 35.71 ^g dpm/mL
Cc1ccnc(NS(=O)(=O)c2ccc(N3CC(=O)Nn4c3nc3ccccc3c4=O)cc2)n1 [Compound 6]	830.11 ± 34.00 ^f dpm/mL
CCOC(=O)c1nn2c(=O)c3ccccc3nc2n1-c1ccc(S(=O)(=O)Nc2nccc(C)n2)cc1 [Compound 12]	1348.21 ± 50.26 dpm/mL
